# credit: patent US11912693B2

target: UniProt P21453; assay: Inhibition of cAMP production (HTRF cAMP HiRange), S1P1 CHO-K1 cells; assay type: cell-based; conditions: inhibition of cAMP production, S1P1 CHO-K1 cells
Sequence (P21453 whole entry, looked up): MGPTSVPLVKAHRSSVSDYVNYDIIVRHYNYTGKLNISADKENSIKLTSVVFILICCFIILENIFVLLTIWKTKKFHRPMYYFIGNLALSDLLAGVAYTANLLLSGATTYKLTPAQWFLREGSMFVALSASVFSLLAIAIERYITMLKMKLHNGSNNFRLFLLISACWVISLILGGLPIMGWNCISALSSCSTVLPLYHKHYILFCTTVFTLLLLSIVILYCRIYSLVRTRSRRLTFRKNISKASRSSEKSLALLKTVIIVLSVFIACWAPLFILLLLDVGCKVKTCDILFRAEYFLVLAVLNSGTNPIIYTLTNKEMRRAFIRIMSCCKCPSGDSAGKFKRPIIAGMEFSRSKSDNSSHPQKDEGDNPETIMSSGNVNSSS
Please respond with reported hS1P1 cAMP pEC50 for every item in the list.

Provide value of hS1P1 cAMP pEC50 for this record tested with UniProt P21453: CC(C)n1nnc2cc(-c3nc(-c4ccccn4)no3)ccc21 [Compound 241]
<6.5

Provide value of hS1P1 cAMP pEC50 for this record tested with UniProt P21453: N#Cc1cc(-c2nc(-c3ccc4c(c3)CCC(=O)N4)no2)ccc1NCCF [Compound 343]
>6.5

Provide value of hS1P1 cAMP pEC50 for this record tested with UniProt P21453: CCC1(CC)CC(=O)c2cc(-c3nc(-c4cccc(OC)n4)no3)ccc2O1 [Compound 553]
<6.5

Provide value of hS1P1 cAMP pEC50 for this record tested with UniProt P21453: Cc1nc2cc(-c3nnc(-c4ccc(NC(C)C)c(C#N)c4)o3)ccc2[nH]1 [Compound 560]
>6.5

Provide value of hS1P1 cAMP pEC50 for this record tested with UniProt P21453: N#Cc1cc(-c2nc(-c3ccc4sc(N)nc4c3)no2)ccc1NCC1CC1 [Compound 440]
>6.5

Provide value of hS1P1 cAMP pEC50 for this record tested with UniProt P21453: Cc1ccncc1-c1noc(-c2ccc3nnn(C(C)C)c3c2)n1 [Compound 264]
<6.5

Provide value of hS1P1 cAMP pEC50 for this record tested with UniProt P21453: N#Cc1cc(-c2nnc(-c3ccc4[nH]c(=O)oc4c3)o2)ccc1NCC(F)F [Compound 488]
>6.5

Provide value of hS1P1 cAMP pEC50 for this record tested with UniProt P21453: COc1ccc2oc(-c3ccc4c(c3)nnn4CC(C)C)nc2c1 [Compound 451]
>6.5

Provide value of hS1P1 cAMP pEC50 for this record tested with UniProt P21453: CCCn1nnc2cc(-c3nc(-c4ccc(C(F)(F)F)c(F)c4)no3)ccc21 [Compound 193]
<6.5

Provide value of hS1P1 cAMP pEC50 for this record tested with UniProt P21453: CC(C)Nc1ccc(-c2nnc(-c3ccc4c(c3)ncn4CCO)o2)cc1C#N [Compound 574]
<6.5

Provide value of hS1P1 cAMP pEC50 for this record tested with UniProt P21453: Cc1ccccc1-c1csc(-c2cnc3c(ccn3C(C)C)c2)n1 [Compound 407]
<6.5

Provide value of hS1P1 cAMP pEC50 for this record tested with UniProt P21453: CCC1(CC)CC(=O)c2cc(-c3nc(-c4ccc(C(=O)N(C)C)cc4)no3)ccc2O1 [Compound 151]
<6.5

Provide value of hS1P1 cAMP pEC50 for this record tested with UniProt P21453: COc1cc(-c2nc(-c3ccc4c(c3)nnn4C(C)C)no2)ccn1 [Compound 116]
<6.5

Provide value of hS1P1 cAMP pEC50 for this record tested with UniProt P21453: C=CCNc1ccc(-c2nc(-c3ccc4c(c3)CCC(=O)N4)no2)cc1C#N [Compound 61]
>6.5

Provide value of hS1P1 cAMP pEC50 for this record tested with UniProt P21453: CC(C)n1nnc2cc(-c3ncc(-c4ccccc4C(F)(F)F)s3)ccc21 [Compound 215]
<6.5

Provide value of hS1P1 cAMP pEC50 for this record tested with UniProt P21453: COc1cncc(-c2nc(-c3ccc4c(c3)nnn4C(C)C)no2)c1 [Compound 272]
<6.5

Provide value of hS1P1 cAMP pEC50 for this record tested with UniProt P21453: COc1cc(C)c(-c2noc(-c3ccc4c(c3)nnn4C(C)C)n2)c(OC)c1 [Compound 136]
<6.5

Provide value of hS1P1 cAMP pEC50 for this record tested with UniProt P21453: CC(C)n1nnc2cc(-c3noc(-c4ccccc4F)n3)ccc21 [Compound 307]
>6.5

Provide value of hS1P1 cAMP pEC50 for this record tested with UniProt P21453: CC(C)c1ccc(-c2nc(-c3ccc4c(c3)nnn4C(C)C)no2)cn1 [Compound 25]
<6.5

Provide value of hS1P1 cAMP pEC50 for this record tested with UniProt P21453: COc1ccccc1-c1noc(-c2cnc3c(c2)nnn3C(C)C)n1 [Compound 383]
>6.5

Provide value of hS1P1 cAMP pEC50 for this record tested with UniProt P21453: COc1cccc(-c2noc(-c3ccc4c(c3)nnn4C(C)C)n2)n1 [Compound 19]
<6.5

Provide value of hS1P1 cAMP pEC50 for this record tested with UniProt P21453: CC(C)n1nnc2cc(-c3c[nH]c(-c4ccccc4)c3)ccc21 [Compound 543]
>6.5

Provide value of hS1P1 cAMP pEC50 for this record tested with UniProt P21453: CC(C)n1nnc2cc(-c3nc4c(o3)CCCc3ccccc3-4)ccc21 [Compound 434]
<6.5

Provide value of hS1P1 cAMP pEC50 for this record tested with UniProt P21453: CCC1(CC)CC(=O)c2cc(-c3nc(-c4sccc4C)no3)ccc2O1 [Compound 265]
>6.5

Provide value of hS1P1 cAMP pEC50 for this record tested with UniProt P21453: CC(C)n1nnc2cc(-c3cc(-c4ccccc4)n(C)c3)ccc21 [Compound 544]
<6.5

Provide value of hS1P1 cAMP pEC50 for this record tested with UniProt P21453: CC(C)Nc1ccc(-c2nnc(-c3ccc4[nH]ncc4c3)o2)cc1C#N [Compound 351]
>6.5

Provide value of hS1P1 cAMP pEC50 for this record tested with UniProt P21453: CC(C)Cn1nnc2cc(-c3nc4c(Cl)cccc4o3)ccc21 [Compound 453]
>6.5

Provide value of hS1P1 cAMP pEC50 for this record tested with UniProt P21453: N#Cc1cc(-c2nnc(-c3ccc4[nH]ncc4c3)o2)ccc1NCCF [Compound 353]
>6.5

Provide value of hS1P1 cAMP pEC50 for this record tested with UniProt P21453: CCC1(CC)CC(=O)c2cc(-c3nc(-c4ccc5cnccc5c4)no3)ccc2O1 [Compound 522]
<6.5

Provide value of hS1P1 cAMP pEC50 for this record tested with UniProt P21453: Cc1ccsc1-c1noc(-c2ccc3c(c2)nnn3CC(C)(C)O)n1 [Compound 140]
>6.5
